A collection of compounds and their measured viability at 250 µg/mL
- Tested on: MDA-MB-231 human breast cancer cells
- protocol-text: cell viability assay (MTT)
- Assay type: cell-based
- condition-description: 250 µg/mL, 24 h, read-out: Validity (%) for sample concentrations (µg/mL) 250
- Protocol: WI-38 normal lung fibroblast cells, A549 lung cancer cells, and MDA-MB-231 breast cancer cells were obtained from VACSERA—Cell Culture Unit, Cairo, Egypt. The cell lines were originally obtained from the American Tissue Culture Collection (ATCC). […] Cell viability was then assessed using the MTT assay (Sigma Aldrich, St. Louis, MO, USA), and the absorbance was read at 570 nm using an ELISA microplate reader (Molecular Devices, Downingtown, PA, USA).
measurement-label: viability at 250 µg/mL

O=C1CSC(C=Cc2ccccc2)N1c1nc(-c2cc(Cl)cc3c2-c2ccc(Cl)cc2C3)cs1 (stereo not shown) :: 50.5%
COc1ccc(C2C(Cl)C(=O)N2c2nc(-c3cc(Cl)cc4c3-c3ccc(Cl)cc3C4)cs2)cc1 (stereo not shown) :: 72.9%
O=C1C(Cl)C(c2ccc(Br)cc2)N1c1nc(-c2cc(Cl)cc3c2-c2ccc(Cl)cc2C3)cs1 (stereo not shown) :: 27.7%
O=C1C(Cl)C(C=Cc2ccccc2)N1c1nc(-c2cc(Cl)cc3c2-c2ccc(Cl)cc2C3)cs1 (stereo not shown) :: 24.3%
O=C1C(Cl)C(c2ccc(Cl)cc2)N1c1nc(-c2cc(Cl)cc3c2-c2ccc(Cl)cc2C3)cs1 (stereo not shown) :: 29.4%
COc1cc(C2SCC(=O)N2c2nc(-c3cc(Cl)cc4c3-c3ccc(Cl)cc3C4)cs2)ccc1O (stereo not shown) :: 61.7%
O=C1C(Cl)C(c2ccnc3ccccc23)N1c1nc(-c2cc(Cl)cc3c2-c2ccc(Cl)cc2C3)cs1 (stereo not shown) :: 67.1%
O=C(O)c1ccc(C2C(Cl)C(=O)N2c2nc(-c3cc(Cl)cc4c3-c3ccc(Cl)cc3C4)cs2)cc1 (stereo not shown) :: 65.5%
COc1ccc(C2SCC(=O)N2c2nc(-c3cc(Cl)cc4c3-c3ccc(Cl)cc3C4)cs2)cc1 (stereo not shown) :: 83.6%
O=C(O)c1ccc(C2SCC(=O)N2c2nc(-c3cc(Cl)cc4c3-c3ccc(Cl)cc3C4)cs2)cc1 (stereo not shown) :: 63.2%
CN(C)c1ccc(C2C(Cl)C(=O)N2c2nc(-c3cc(Cl)cc4c3-c3ccc(Cl)cc3C4)cs2)cc1 (stereo not shown) :: 41.9%
O=C1C(Cl)C(c2ccc([N+](=O)[O-])cc2)N1c1nc(-c2cc(Cl)cc3c2-c2ccc(Cl)cc2C3)cs1 (stereo not shown) :: 37.2%
O=C1CSC(c2ccccc2)N1c1nc(-c2cc(Cl)cc3c2-c2ccc(Cl)cc2C3)cs1 (stereo not shown) :: 82.5%
O=C1C(Cl)C(c2ccc[nH]2)N1c1nc(-c2cc(Cl)cc3c2-c2ccc(Cl)cc2C3)cs1 (stereo not shown) :: 66.7%
O=C1CSC(c2ccc[nH]2)N1c1nc(-c2cc(Cl)cc3c2-c2ccc(Cl)cc2C3)cs1 (stereo not shown) :: 64.6%
COc1cc(C2C(Cl)C(=O)N2c2nc(-c3cc(Cl)cc4c3-c3ccc(Cl)cc3C4)cs2)ccc1O (stereo not shown) :: 68.5%
O=C1CSC(c2ccncc2)N1c1nc(-c2cc(Cl)cc3c2-c2ccc(Cl)cc2C3)cs1 (stereo not shown) :: 65.6%
O=C1CSC(c2cccs2)N1c1nc(-c2cc(Cl)cc3c2-c2ccc(Cl)cc2C3)cs1 (stereo not shown) :: 50.6%
O=C1CSC(c2ccco2)N1c1nc(-c2cc(Cl)cc3c2-c2ccc(Cl)cc2C3)cs1 (stereo not shown) :: 57.2%
O=C1CSC(c2ccc(Cl)cc2)N1c1nc(-c2cc(Cl)cc3c2-c2ccc(Cl)cc2C3)cs1 (stereo not shown) :: 84.5%
O=C1C(Cl)C(c2ccncc2)N1c1nc(-c2cc(Cl)cc3c2-c2ccc(Cl)cc2C3)cs1 (stereo not shown) :: 63.4%
CN(C)c1ccc(C2SCC(=O)N2c2nc(-c3cc(Cl)cc4c3-c3ccc(Cl)cc3C4)cs2)cc1 (stereo not shown) :: 75.9%
O=C1C(Cl)C(c2cccs2)N1c1nc(-c2cc(Cl)cc3c2-c2ccc(Cl)cc2C3)cs1 (stereo not shown) :: 33.3%
O=C1CSC(c2ccc([N+](=O)[O-])cc2)N1c1nc(-c2cc(Cl)cc3c2-c2ccc(Cl)cc2C3)cs1 (stereo not shown) :: 79.6%
O=C1CSC(c2ccc(Br)cc2)N1c1nc(-c2cc(Cl)cc3c2-c2ccc(Cl)cc2C3)cs1 (stereo not shown) :: 87.2%
O=C1C(Cl)C(c2ccco2)N1c1nc(-c2cc(Cl)cc3c2-c2ccc(Cl)cc2C3)cs1 (stereo not shown) :: 53.2%
O=C1CSC(c2ccnc3ccccc23)N1c1nc(-c2cc(Cl)cc3c2-c2ccc(Cl)cc2C3)cs1 (stereo not shown) :: 58.7%
O=C1C(Cl)C(c2ccccc2)N1c1nc(-c2cc(Cl)cc3c2-c2ccc(Cl)cc2C3)cs1 (stereo not shown) :: 69.6%
